Value source: patent US9000159B2

- Tested system: Human TRPA1 (Homo sapiens)
- Sequence (O75762 whole entry): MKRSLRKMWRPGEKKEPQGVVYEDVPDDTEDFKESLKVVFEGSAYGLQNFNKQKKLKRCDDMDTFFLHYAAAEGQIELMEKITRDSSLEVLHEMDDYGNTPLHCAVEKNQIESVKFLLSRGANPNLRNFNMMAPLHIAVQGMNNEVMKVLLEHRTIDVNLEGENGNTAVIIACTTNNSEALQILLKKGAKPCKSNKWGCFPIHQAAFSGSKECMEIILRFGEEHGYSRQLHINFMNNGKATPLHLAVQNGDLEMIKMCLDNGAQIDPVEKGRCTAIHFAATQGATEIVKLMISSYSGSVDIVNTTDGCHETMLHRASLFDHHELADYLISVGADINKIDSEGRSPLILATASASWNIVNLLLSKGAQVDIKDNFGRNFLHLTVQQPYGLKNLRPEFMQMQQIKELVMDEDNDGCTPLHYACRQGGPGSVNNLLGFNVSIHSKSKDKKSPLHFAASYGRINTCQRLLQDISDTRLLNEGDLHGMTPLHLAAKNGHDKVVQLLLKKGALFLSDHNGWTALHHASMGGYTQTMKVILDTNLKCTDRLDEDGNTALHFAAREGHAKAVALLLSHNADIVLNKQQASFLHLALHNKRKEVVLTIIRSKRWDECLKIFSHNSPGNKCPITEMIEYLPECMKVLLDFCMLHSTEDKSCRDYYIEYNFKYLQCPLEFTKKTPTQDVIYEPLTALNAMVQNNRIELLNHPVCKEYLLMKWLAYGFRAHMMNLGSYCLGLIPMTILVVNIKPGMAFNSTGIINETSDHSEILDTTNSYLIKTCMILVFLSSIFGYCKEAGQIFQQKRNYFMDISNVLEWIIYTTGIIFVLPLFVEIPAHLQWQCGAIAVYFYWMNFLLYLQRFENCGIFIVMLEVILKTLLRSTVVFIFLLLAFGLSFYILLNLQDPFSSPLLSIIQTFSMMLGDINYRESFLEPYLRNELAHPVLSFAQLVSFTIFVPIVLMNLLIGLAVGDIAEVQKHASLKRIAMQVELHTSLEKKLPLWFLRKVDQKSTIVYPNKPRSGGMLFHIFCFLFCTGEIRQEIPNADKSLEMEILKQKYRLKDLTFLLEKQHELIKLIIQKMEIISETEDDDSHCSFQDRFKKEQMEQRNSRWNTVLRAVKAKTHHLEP
- Test details: 45Calcium uptake assay: inhibition of AITC induced cellular uptake of radioactive calcium
- Measurement conditions: AITC (30 μM) induced 45Ca uptake; Human TRPA1 expressing CHO cells; read-out: Human IC50 value (range)
- Method: The illustrative examples of the present invention are screened for TRPA1 activity according to a modified procedure described in (a) Tóth, A. et al., Life Sciences, 2003, 73, 487-498. […] The inhibition of TRPA1 receptor activation was measured as inhibition of allyl isothiocyanate (AITC) induced cellular uptake of radioactive calcium. […] Radioactivity in the lysate was measured in Packard Top count after addition of liquid scintillant. […]
Each item that follows carries a reported IC50.

Some solved cases for reference:
- Molecule: "Cn1nc2c(c1CC(=O)Nc1nc(-c3cccc(C(F)(F)F)c3F)cs1)c(=O)n(C)c(=O)n2C [Example 55]"
  Tested system: "Human TRPA1 (Homo sapiens)"
  Recorded value: "50 to 100 nM"
- Molecule: "Cn1c(=O)c2c(cnn2CC(=O)Nc2nc(-c3ccc(C(F)(F)F)c(F)c3)cs2)n(C)c1=O [Example 68]"
  Tested system: "Human TRPA1 (Homo sapiens)"
  Recorded value: "> 100 nM"
- Molecule: "Cn1nc2c(c1CC(=O)Nc1nc(-c3ccc(OC(F)(F)F)c(F)c3)cs1)c(=O)n(C)c(=O)n2C [Example 59]"
  Tested system: "Human TRPA1 (Homo sapiens)"
  Recorded value: "< 50 nM"
- Molecule: "Cc1cc2c(c(=O)n(C)c(=O)n2C)n1CC(=O)Nc1nc(-c2cc(F)c(OCC(F)(F)F)c(Cl)c2)cs1 [Example 30]"
  Tested system: "Human TRPA1 (Homo sapiens)"
  Recorded value: "< 50 nM"

Which value of IC50 has been reported for Cn1c(=O)c2c(ccn2CC(=O)Nc2nc(-c3cc(F)c(OCC(F)(F)F)c(F)c3)cs2)n(C)c1=O [Example 11] in the records?
< 50 nM

Which value of IC50 has been reported for Cn1c(=O)c2c(cnn2CC(=O)Nc2nc(-c3cc(F)c(OCC(F)(F)F)c(F)c3)cs2)n(C)c1=O [Example 73] in the records?
< 50 nM

Which value of IC50 has been reported for Cn1nc2c(c1CC(=O)Nc1nc(-c3ccc(Cl)cc3)cs1)c(=O)n(C)c(=O)n2C [Example 46] in the records?
> 100 nM
